pIC50: −log10 of the molar value.
Values of pIC50 for Aurora kinase B (Homo sapiens, UniProt Q96GD4), collected from a number of published sources:

Answered examples (5):
{"Molecule": "O=C(c1ccoc1)N1CCN(Cc2cccc(Nc3ncc(Cl)s3)n2)CC1", "Experimental System": "Aurora kinase B (Homo sapiens, UniProt Q96GD4)", "pIC50": 6.28}
{"Molecule": "CN1CCC(Oc2ccc(-c3n[nH]c4ccc(C(=O)N[C@H](c5ccccc5)C5CC5)cc34)cc2)CC1", "Experimental System": "Aurora kinase B (Homo sapiens, UniProt Q96GD4)", "pIC50": "≥ 5.30"}
{"Molecule": "NC(=O)[C@H]1[C@@H]2C[C@H]3CNC(=O)Cn4cc(cn4)Nc4ncc(F)c(n4)N[C@@H]1[C@@H]3C2", "Experimental System": "Aurora kinase B (Homo sapiens, UniProt Q96GD4)", "pIC50": "7.00 to 9.00"}
{"Molecule": "CC(C)OC(C(=O)Nc1ccc2[nH]nc(-c3ccc(OC4CCN(C)CC4)cc3)c2c1)c1ccccc1 (centres unmarked)", "Experimental System": "Aurora kinase B (Homo sapiens, UniProt Q96GD4)", "pIC50": "≥ 5.30"}
{"Molecule": "O=C(Nc1ccc2[nH]nc(-c3ccc(OC4CCOCC4)cc3)c2c1)C(c1ccsc1)N1CCCC1 (centres unmarked)", "Experimental System": "Aurora kinase B (Homo sapiens, UniProt Q96GD4)", "pIC50": "≥ 5.30"}

What measured pIC50 goes with COC(C(=O)Nc1ccc2[nH]nc(-c3ccc(OC4CCN(C)CC4)cc3)c2c1)c1ccsc1 (centres unmarked) ?
≥ 5.30

What measured pIC50 goes with COc1cc(-c2n[nH]c3ccc(NC(=O)C(c4ccsc4)N4CCCC4)cc23)ccc1OC1CCN(C)CC1 (centres unmarked) ?
≥ 5.30

What measured pIC50 goes with `O=C(O)CCc1c(/C=C2\C(=O)Nc3ccc(S(=O)(=O)N4CCCCC4)cc32)[nH]c2c1C(=O)CCC2` ?
6.31
